Readings of extent of growth: maximal OD630 over 24 hr divided by maximal OD of control (control = 1) for the listed compounds
system: Streptococcus mutans; test: Twenty-four hour optical density growth in BHI; type: cell-based; conditions: S mutans; 5 μmol/ml
Parameter: extent of growth: maximal OD630 over 24 hr divided by maximal OD of control (control = 1)

[[record]]
compound = "OC[C@H]1O[C@@](O)(CO)[C@@H](O[C@H]2O[C@H](CO)[C@@H](O)[C@H](O)[C@H]2O)[C@@H]1O [D-Turanose]"
measured_result = 1.0547

[[record]]
compound = "CC(=O)N[C@H](C=O)[C@@H](O)[C@H](O)[C@H](O)CO [N-acetyl-D-mannosamine, 2-acetamido-2-deoxy-D-mannose]"
measured_result = 0.8669

[[record]]
compound = "O[C@H]1[C@H](O)[C@@H](O)[C@H](O)[C@@H](O)[C@H]1O [Myo-Inositol]"
measured_result = 1.1065

[[record]]
compound = "OC[C@@H](O)[C@@H](O[C@H]1O[C@H](CO)[C@H](O)[C@H](O)[C@H]1O)[C@H](O)[C@@H](O)CO [D-Lactitol, 4-O-α-D-galactopyranosyl-D-glucitol]"
measured_result = 0.9466

